# measuredTarget: Carbonic anhydrase 13 (Homo sapiens)
# Sequence (Q8N1Q1 whole entry): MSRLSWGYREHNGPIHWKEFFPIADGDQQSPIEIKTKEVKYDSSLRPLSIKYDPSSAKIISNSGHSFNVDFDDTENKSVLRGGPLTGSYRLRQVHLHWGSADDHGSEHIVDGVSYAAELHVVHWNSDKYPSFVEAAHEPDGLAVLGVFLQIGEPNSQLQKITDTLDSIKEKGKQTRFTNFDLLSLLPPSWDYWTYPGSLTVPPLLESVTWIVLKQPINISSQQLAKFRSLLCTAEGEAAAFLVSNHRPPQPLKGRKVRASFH
# assayRemarks: Binding affinity to recombinant human CA13 by DSF-based fluorescence thermal shift assay
pKd: −log10 of the molar value.
measuredMetric: pKd

See these solved cases before continuing.
| compound | measuredMetric | valueReported |
| --- | --- | --- |
| Cc1cc(NCC(CC(=O)O)c2n[nH]c(=S)n2-c2ccccc2)cc(C)c1S(N)(=O)=O (centres undefined) | pKd | 4.48 |
| Cc1cc(S(N)(=O)=O)c(C)cc1N1CC(C(=O)N/N=C/c2ccccc2)CC1=O (centres undefined) | pKd | 6.38 |
| Cc1cc(C)n(C(=O)C2CC(=O)N(c3cc(C)c(S(N)(=O)=O)c(C)c3)C2)n1 (centres undefined) | pKd | 5.43 |
| Cc1cc(N2CC(C(=O)N/N=C/c3ccccc3)CC2=O)c(Cl)c(C)c1S(N)(=O)=O (centres undefined) | pKd | 7.48 |
| NS(=O)(=O)c1ccc(NC(=O)C2CC(=O)N(c3ccccc3)C2)cc1 (centres undefined) | pKd | 6.18 |
| Cc1cc(N2CC(c3n[nH]c(=S)o3)CC2=O)c(Cl)c(C)c1S(N)(=O)=O (centres undefined) | pKd | 7.00 |
| Cc1cc(S(N)(=O)=O)c(C)cc1N1CC(C(=O)O)CC1=O (centres undefined) | pKd | 6.17 |
| Cc1cc(N2CC(C(=O)N/N=C/c3ccc([N+](=O)[O-])cc3)CC2=O)cc(C)c1S(N)(=O)=O (centres undefined) | pKd | 4.77 |

A. Cc1cc(N2CC(C(=O)N/N=C/c3ccccc3)CC2=O)cc(C)c1S(N)(=O)=O (centres undefined)
B. Cc1cc(N2CC(C(=O)N/N=C/c3ccc(Br)cc3)CC2=O)c(Cl)c(C)c1S(N)(=O)=O (centres undefined)
In: Of A versus B , which is the one with smaller reported pKd? Give the chosen item's label as your response.
Out: A
(A: 4.66, B: 7.17)

a. Cc1cc(C)n(NC(=O)C2CC(=O)N(c3cc(C)c(S(N)(=O)=O)c(C)c3Cl)C2)n1 (centres undefined)
b. Cc1cc(N2CC(C(=O)N/N=C/c3ccc(Br)cc3)CC2=O)cc(C)c1S(N)(=O)=O (centres undefined)
c. Cc1cc(N2CC(C(=O)N/N=C/c3ccc(Cl)cc3)CC2=O)c(Cl)c(C)c1S(N)(=O)=O (centres undefined)
d. Cc1cc(NCC(CC(=O)O)c2n[nH]c(=S)n2-c2ccccc2)c(Cl)c(C)c1S(N)(=O)=O (centres undefined)
In: Ranking field: pKd; order: falling. Please respond with the labels ordered as the question requires.
Out: a, c, d, b
